The measurements presented in this section are drawn from paper PMC5817852.

This listing pairs molecules with measured CC50.
- Test system: MDA-MB-231 breast cancer cell line
- Measurement Description: qHTS cell viability screen (Cell Titer Glo), MDA-MB-231
- Format: cell-based

CSc1ccc(/C=C2/C(C)=C(CN(Cc3ccc(N(C)C)cc3)Cc3ccc(N(C)C)cc3)c3cc(F)ccc32)cc1 :: > 50 µM
COc1ccc(CN(CC2=C(C)/C(=C/c3cc(OC)c(OC)c(OC)c3)c3ccc(F)cc32)Cc2ccc(OC)cc2)cc1 :: > 50 µM
COc1cc(/C=C2/C(C)=C(CN(Cc3ccc(F)cc3)Cc3ccc(F)cc3)c3cc(F)ccc32)cc(OC)c1OC :: > 50 µM
CSc1ccc(/C=C2/C(C)=C(CN(Cc3ccncc3)Cc3ccncc3)c3cc(F)ccc32)cc1 :: 9.5 µM
CSc1ccc(/C=C2/C(C)=C(CN(Cc3ccco3)Cc3ccco3)c3cc(F)ccc32)cc1 :: 48.8 µM

CC50 lookup needed for COc1cc(/C=C2/C(C)=C(CN(Cc3ccco3)Cc3ccco3)c3cc(F)ccc32)cc(OC)c1OC , thanks.
> 50 µM

Then CSc1ccc(/C=C2/C(C)=C(CN(Cc3ccc4ccccc4c3)Cc3ccc4ccccc4c3)c3cc(F)ccc32)cc1 ?
> 50 µM

----------
- Tested on: PC3 prostate cancer cell line
- Measurement Description: qHTS cell viability screen (Cell Titer Glo), PC3
- Type: cell-based
- Assay Context: PC3 prostate, 72 hours, cell viability Cell Titer Glo; read-out: CC50 PC3
Recorded Endpoint: CC50 (µM)
Your answer is read as µM, so omit the unit and give the number.

CSc1ccc(/C=C2/C(C)=C(CNC(=O)[C@@H](N)C(C)C)c3cc(F)ccc32)cc1 :: 5.16
COc1cc(/C=C2/C(C)=C(CNS(C)(=O)=O)c3cc(F)ccc32)cc(OC)c1OC :: 18.9
COc1cc(/C=C2/C(C)=C(CNC(=O)[C@@H](N)C(C)C)c3cc(F)ccc32)cc(OC)c1OC :: 8.11
CSc1ccc(/C=C2/C(C)=C(CN(Cc3ccncc3)Cc3ccncc3)c3cc(F)ccc32)cc1 :: 12.7
COc1cc(/C=C2/C(C)=C(CNC(=O)CN)c3cc(F)ccc32)cc(OC)c1OC :: 17.9
COc1cc(/C=C2/C(C)=C(CNS(=O)(=O)c3ccccc3)c3cc(F)ccc32)cc(OC)c1OC :: 40.9
COc1cc(/C=C2/C(C)=C(CN(Cc3ccncc3)Cc3ccncc3)c3cc(F)ccc32)cc(OC)c1OC :: 9.09
CSc1ccc(/C=C2/C(C)=C(CNC(=O)c3ccco3)c3cc(F)ccc32)cc1 :: 39.8

CC50 lookup needed for CSc1ccc(/C=C2/C(C)=C(CCNCc3ccco3)c3cc(F)ccc32)cc1 , thanks.
9.94

Then CSc1ccc(/C=C2/C(C)=C(CCNCCN3CCCCC3)c3cc(F)ccc32)cc1 ?
4.78

Then CSc1ccc(/C=C2/C(C)=C(CNC(=O)[C@@H](N)CC(C)C)c3cc(F)ccc32)cc1 ?
6.21

Then CSc1ccc(/C=C2/C(C)=C(CNC(=O)CN)c3cc(F)ccc32)cc1 ?
7.27

----------
- Test system: PC3 prostate cancer cell line
- Measurement Description: qHTS cell viability screen (Cell Titer Glo), PC3
- Type: cell-based
- Assay Context: 72 h, PC3 prostate, 72 hours, cell viability Cell Titer Glo; read-out: CC50 PC3
For each record, check the reported CC50: if it is below 20 µM write true (1), else write false (0).

CSc1ccc(/C=C2/C(C)=C(CNC(=O)[C@@H](N)C(C)C)c3cc(F)ccc32)cc1 [Compound 24] :: true (1)

Dear reviewer, please state whether CSc1ccc(/C=C2/C(C)=C(CNS(=O)(=O)c3ccccc3)c3cc(F)ccc32)cc1 [Compound 36] has CC50 strictly beneath 20 µM.
false (0)

Then CCS(=O)(=O)NCC1=C(C)/C(=C/c2ccc(SC)cc2)c2ccc(F)cc21 [Compound 35] ?
false (0)

Then CSc1ccc(/C=C2/C(C)=C(CNC(=O)[C@@H]3CCCN3)c3cc(F)ccc32)cc1 [Compound 25] ?
true (1)

Then COc1cc(/C=C2/C(C)=C(CNC(C)=O)c3cc(F)ccc32)cc(OC)c1OC [Compound 28] ?
false (0)

Then CSc1ccc(/C=C2/C(C)=C(CNC(=O)[C@@H](N)CO)c3cc(F)ccc32)cc1 [Compound 22] ?
true (1)

Then CSc1ccc(/C=C2/C(C)=C(CN(Cc3ccccc3)Cc3ccccc3)c3cc(F)ccc32)cc1 [Compound 48] ?
false (0)

Then CSc1ccc(/C=C2/C(C)=C(CNC(=O)Cc3ccccc3)c3cc(F)ccc32)cc1 [Compound 18] ?
true (1)
